Where do these numbers come from? They come from patent US8853424B2.

compounds and their reported TGase activity remaining (% of DMSO control = 100)
test system: transglutaminase (TGase); assay: Measurement of TG (TGase inhibitory activity, monodansyl cadaverine / N,N-dimethylcasein fluorescence, FDSS 3000); assay type: biochemical; details: TGase activity with compound (10 mM, 1 μL in 0.1 ml enzyme reaction solution); DMSO control taken as 100
Quick one: just the number, no unit, thanks!

Example compounds with recorded TGase activity remaining (% of DMSO control = 100):
| COMPOUND | TEST_RESULT |
| --- | --- |
| CC(CN)OB(c1ccccc1)c1cccc(COCc2cccc(B(OC(C)CN)c3ccccc3)c2)c1 (stereo not drawn) [Example 465] | 18 |
| OB(c1ccccc1)c1cccc(B(O)c2ccccc2)c1 [Example 147, 1,3-bis(phenylhydroxyboryl)benzene] | 101 |
| Cc1ccc(Cl)cc1B(OCCN)c1cc(Cl)ccc1C [Example 244] | 74 |
| NC(=O)CCC(N)C(=O)OB(c1ccccc1)c1ccc(Oc2ccc(B(OC(=O)C(N)CCC(N)=O)c3ccccc3)cc2)cc1 (stereo not drawn) [Example 388] | 41 |
| Cc1ccc(B(O)c2ccc(Oc3ccc(B(O)c4ccc(C)cc4)cc3)cc2)cc1 [Example 440, bis(4,4′-(tolylhydroxyboryl)phenyl)ether] | 63 |
| NC(=O)CCC(N)C(=O)OB(c1ccccc1)c1ccc(Oc2ccc(B(OC(=O)C(N)CCC(N)=O)c3ccccc3)cc2)cc1 (stereo not drawn) [Example 273] | 83 |
| O=C1O[B-](c2ccccc2)(c2ccccc2)[NH2+]C1Cc1ccccc1 (stereo not drawn) [Example 259, diphenyl(phenylalaninate-O,N)borane] | 67 |
| OB(c1ccc(F)cc1)c1cccc(COCc2cccc(B(O)c3ccc(F)cc3)c2)c1 [Example 336] | 101 |
| CN(C)CCOB(c1ccccc1)c1cccc(COCc2cccc(B(OCCN(C)C)c3ccccc3)c2)c1 [Example 464] | 41 |
| Cc1ccc(B(OCCN2CCN(CCOB(c3ccc(C)c(Cl)c3)c3ccc(C)c(Cl)c3)CC2)c2ccc(C)c(Cl)c2)cc1Cl [Example 116] | 108 |

What value of measured TGase activity remaining (% of DMSO control = 100) is listed for NCCOB(c1ccsc1)c1ccc2sc3ccc(B(OCCN)c4ccsc4)cc3c2c1 [Example 485] ?
76

What value of measured TGase activity remaining (% of DMSO control = 100) is listed for Fc1cc(B(OCc2ccccn2)c2cc(F)c(F)c(F)c2)cc(F)c1F [Example 90] ?
93

What value of measured TGase activity remaining (% of DMSO control = 100) is listed for CN(C)CCOB(c1ccc(C(F)(F)F)cc1)c1ccc(C(F)(F)F)cc1 [Example 233] ?
112

What value of measured TGase activity remaining (% of DMSO control = 100) is listed for c1ccc(B2OCCN3CCN(CCOB(c4ccccc4)c4ccc(cc4)Oc4ccc2cc4)CC3)cc1 [Example 196] ?
117

What value of measured TGase activity remaining (% of DMSO control = 100) is listed for NCCNCCOB(c1ccccc1)c1ccc(Oc2ccc(B(OCCNCCN)c3ccccc3)cc2)cc1 [Example 396] ?
3

====

compounds and their reported TGase activity remaining (% of DMSO control = 100)
tested on: transglutaminase (TGase); assay: Measurement of TG (TGase inhibitory activity, monodansyl cadaverine / N,N-dimethylcasein fluorescence, FDSS 3000); assay type: biochemical; conditions: TGase activity with compound (10 mM, 1 μL in 0.1 ml enzyme reaction solution); DMSO control taken as 100
Quick one: just the number, no unit, thanks!

Example compounds with recorded TGase activity remaining (% of DMSO control = 100):
| COMPOUND | TEST_RESULT |
| --- | --- |
| NCCOB(c1ccc(F)c(Cl)c1)c1ccc(F)c(Cl)c1 [Example 86] | 103 |
| Cc1ccc(B(OC(=O)C(N)CCCCN)c2ccc(Oc3ccc(B(OC(=O)C(N)CCCCN)c4ccc(C)cc4)cc3)cc2)cc1 (stereo not shown) [Example 450, bis(4,4′-(tolyllysineboryl)phenyl)ether] | 53 |
| OB(c1ccccc1)c1ccccc1B(O)c1ccccc1 [Example 121, 1,2-bis(phenylhydroxyboryl)benzene] | 121 |

What value of measured TGase activity remaining (% of DMSO control = 100) is listed for NCCC(N)C(=O)OB(c1ccccc1)c1ccccc1 (stereo not shown) [Example 178] ?
142

What value of measured TGase activity remaining (% of DMSO control = 100) is listed for Cc1ccc(B(O)c2ccc(Oc3ccc(B(O)c4ccc(C)c(Cl)c4)cc3)cc2)cc1Cl [Example 251] ?
121

What value of measured TGase activity remaining (% of DMSO control = 100) is listed for Cc1ccc(B(O)c2ccc(Oc3ccc(B(O)c4ccc(C)c(Cl)c4)cc3)cc2)cc1Cl [Example 367] ?
113

What value of measured TGase activity remaining (% of DMSO control = 100) is listed for N#Cc1cccc(B(O)c2cccc(C#N)c2)c1 [Example 306, 3,3′-di(cyano-phenyl)borinic acid] ?
90
